- tgt: cynomolgus IL-13 (cynomolgus, UniProt Q0PW92 21-132)
- Sequence (Q0PW92 entry or part of it): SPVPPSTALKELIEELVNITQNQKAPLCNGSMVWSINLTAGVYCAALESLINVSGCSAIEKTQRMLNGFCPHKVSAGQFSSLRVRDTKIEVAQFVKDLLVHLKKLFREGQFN
- assay comment: cell-based or functional assay
measured metric: Average IC50, IL-13-induced TARC production by A-549 cells

binder="25C8 (antibody, V domains shown) VH: QVQLQQPGAELVRPGASVQLSCKASGYTFTSSWIHWVNQRPGQGLEWIGMIHPSDSETRLNQKFKDKATLTVDKSSSTAYMQLSSPTSEDSAVYYCASTATDFDYWGQGTTLTVSS VL: DVVLTQTPLSLPVNIGDQASISCKSTKSLLNSDGFTYLDWYLQKPGQSPQLLIYLVSNRFSGAPDRFSGSGSGTDFTLKISRVEAEDLGVYYCFQHNYLPLTFGAGTNLELKR" reported_value="0.188 nM"
binder="3E5 (antibody, V domains shown) VH: QVQLKESGPGLVAPSQSLSITCTVSGFSLTGSSINWVRQPPGKGLEWLGMIWGDGRIDYNSVLKSRLSISKDSSKSQVFLKMNSLQADDTARYYCARDGYYPYAMVYWGQGTSVTVSS VL: NIVLTQSPASLAVSLGQRATIFCRASESVDSYGNSFMHWYQQKSGQPPKLLIYLASNLESGVPARFSGSGSRTDFTLTIDPVEADDAATFYCQQNNENPRTFGGGTKLEIKR" reported_value="0.161 nM"
binder="21D9 (antibody, V domains shown) VH: QVQLQQSGDDLVKPGASVKLSCKASGYTFTSYWINWIKQRPGQGLEWIGHIAPGSGETYDNEMFKDKAKLTVDTSSNTAYIHLSSLSSEDSAVYFCARGSFTFFYAMDYWGQGTSVTVSS VL: DVLMTQTPLSLPVSLGDQASISCRSSQNIVHSNGKTYLEWYLQRPGQSPKLLIYKVSNRFSGVPDRFSGSGSGTDFTLKISRVEAEDLGVYYCFQGSHVPYTFGGGTKLEIKR" reported_value="0.34 nM"
binder="5G1 (antibody, V domains shown) VH: QVQLQQSGAELARPGTSVKLSCKASGYTFTTYGVSWVKQRTGQGLEWIGEIYPGNYNTYYNEKFRGKATLTADKSSSTAYMQLSSLTSEDSAVYFCSRWRTSYFSDYGYFDYWGQGTTLTVSS VL: DVVMTQTPLSLPVSLGDQASISCRSSQSLVHSHGNTYLHWYLQKPGQSPKLLIYTVSNRFSGVPDRFSGSGSGTDFTLKISRVEAEDLGVYFCSQSTHVPYTFGGGTKLEIKR" reported_value="0.612 nM"
binder="1B6 (antibody, V domains shown) VH: QVQLKESGPGLVAPSQSLSITCTVSGFSLTGYGVNWVRQPPGKGLEWLGMIWGDERIDYNSALKSRLSITKDNSKSQVFLKMNSLQTDDTGRYFCARDGYFPYAMDYWGQGTSVTVSS VL: NIVLTQSPASLAVSLGQRATISCRASETVDSYGKSYLHWYQQKPGQPPKLLIYLASNLESGVPARFSGSGSRTDFTLIIDPVEADDAATYYCQQNNEGPRTFGGGTKLEIKR" reported_value="0.521 nM"
binder="33C3 (antibody, V domains shown) VH: QVTLKESGPGILQPSQTLSLTCSFSGFSLSTSDLGVGWIRQPSGKGLEWLAHIWWDDVKRYNPALKSRLTISKDTSSSQVFLMIASVDTADTATYYCARIGSSGYIYYEMDYWGQGTSVTVSS VL: DIQMTQTTSSLSASLGDRVTITCRASQDIRNYLNWYQQKPDGTVKLLIYYTSRLHSGVPSRFSGSGSGTDYSLTISNLDQEDIATYFCQQGNTLPLTFGGGTRLEIKR" reported_value="0.847 nM"
binder="9C11 (antibody, V domains shown) VH: QVRLQQPGAELVRPGASVKLSCKASGYTFTSSWIHWVNQRPGQGLEWIGMIHPSDSETRLNQKFKDKATLTVDKSSSTAYMQLSSPTSEDSAVYYCASTATDFDYWGQGTTLTVSS VL: DVVLTQTPLSLPVNIGDQASISCRSTQTLLNSDGFTYLDWYLQKPGQSPQLLIYLVSNRFSGVPDRFSGSGSGTDFTLKISRVEAEDLGVYYCFQNNYLPLTFGAGTKLELKR" reported_value="0.64 nM"
binder="6C8 (antibody, V domains shown) VH: QVQLKESGPGLVAPSQSLSITCTVSEFSLTGSSVNWVRQPPGKGLEWLGMIWGDGRIDYNSALKSRLSISKDNSKSQVFLKMNSLQTDDTARYYCARDGYYPYAMNYWGQGTSVTVSS VL: NIVLTQSPASLAVSLGQRATISCRASESVDSYGNSFMHWYQQKPGQPPKLLIYLASNLESGVPARFSGSGSRADFTLTIDPVEADDAATYYCQQNNENPRTFGGGTKLEIKR" reported_value="0.161 nM"
binder="22D10 (antibody, V domains shown) VH: QVQLQQSGDDLVKPGASVKLSCKASGYTFTSYWINWIKQRPGQGLEWIGHIAPGSGETYDNEMFKDKAKLTVDTSSSTAYIHLSSLSSEDSAVYFCARGSFTFFYAMDYWGQGTSVTVSS VL: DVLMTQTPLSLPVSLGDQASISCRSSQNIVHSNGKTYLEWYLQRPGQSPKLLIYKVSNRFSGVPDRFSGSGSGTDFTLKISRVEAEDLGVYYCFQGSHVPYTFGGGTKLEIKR" reported_value="6.11 nM"
